Entry source: ChEMBL document CHEMBL1201862

Test system: OVCAR-4
Assay Summary: NCI tumour cell line growth inhibition, 48 h
Calls of active or inactive are those of the source. Cut-off read from the data, not from the text of the source: active = GI50 up to about 1.1 µM and inactive = higher.
Give your call using only these classes: active, inactive

Enquiry: Recorded test call requested for O=C(N/N=C(COc1ccc(Cl)cc1)\N=C\c1ccncc1)c1ccncc1
Return: inactive

Enquiry: Identify the outcome logged in this assay for the compound shown: COc1cc(/C=C/c2cc(=O)cc(/C=C/c3ccc(O)c(OC)c3)o2)ccc1O
Return: inactive

Enquiry: Hi, sorry to bother you, what did the test record for N#CC(C#N)=C1/C(=C/C=C/C=C/C=C/c2ccc(N3CCCCC3)s2)S(=O)(=O)c2ccccc21 ?
Return: inactive

Enquiry: Hi, sorry to bother you, what did the test record for c1ccc(C(c2ccccc2)c2ccccn2)cc1 ?
Return: inactive

Enquiry: Short answer needed: outcome of this test for Nc1nncc2[nH]cnc12 ?
Return: inactive

Enquiry: Identify the outcome logged in this assay for the compound shown: Cc1cc2c(cn1)C(=O)OCC2
Return: inactive

Enquiry: # lookup: test call for O=C(O)c1ccc(C(=O)c2ccccc2)c(C(=O)O)c1
Return: inactive

Enquiry: Which outcome was assigned to Cc1c(/C=N/N(C)C)oc2c1cc(O)c1ncccc12 in this test?
Return: inactive

Enquiry: Would you mind telling me which call this test gave CN1CC=C(OP(=O)(NCc2ccccc2)N(CCCl)CCCl)CC1 (configuration not stated) ?
Return: inactive

Enquiry: Please let me know the test result on file for CC(C)(C)OC(=O)N/C(C=O)=C\C1CCCCC1 .
Return: inactive

Enquiry: Given O=C(O)c1ccc(C=C2Sc3ccccc3S2)cc1 , state the outcome it received in this test.
Return: inactive

Enquiry: For this compound, state the assay outcome: COc1cc2c(cc1OC)C1Cc3ccc(OC)c(OC)c3C[N+]1([O-])CC2 (configuration not stated)
Return: inactive

Enquiry: Called result for COC(=O)C1=C(C(=O)OC)C2(c3ccccc3)OC1(c1ccccc1)c1cc3ccccc3cc12
Return: inactive

Enquiry: // return assay outcome for CC(C)N(C(=O)C12C3C4C5(C(=O)O)C(C1C35I)C42C(=O)O)C(C)C (configuration not stated)
Return: inactive

Enquiry: How was O=C1NCC2(CCN(CCCC3(c4ccc(F)cc4)OCCO3)CC2)N1c1ccccc1 classified in this test?
Return: inactive

Enquiry: Entry COc1cccc(/C=N/n2c(-c3ccccc3)n[nH]c2=O)c1 : call = ?
Return: inactive

Enquiry: Recorded call for CN(C)CCCNc1ncnc2c1ncn2C1OC(CO)C(O)C1O (configuration not stated) ?
Return: inactive

Enquiry: How was O=[N+]([O-])c1ccc(COc2cccc3cccnc23)cc1 classified in this test?
Return: inactive

Enquiry: For this compound, state the assay outcome: C=C1C(O)C[C@H](OC(C)=O)[C@]2(C)C1C(OC(C)=O)[C@]1(C(C)(C)O)CC(O)C(C)=C1[C@@H](OC(=O)c1ccccc1)C2OC(C)=O (some centres not stated)
Return: inactive

Enquiry: What did this assay record as the result for O/N=C1/C2CC3CC1(c1ccccc1)CC(/C3=N/O)/C2=N\O (configuration not stated) ?
Return: inactive

Enquiry: Please state the recorded outcome for this compound: CNc1cc(Cl)ccc1C(=O)N1CCC[C@H]1CO
Return: inactive

Enquiry: Write down the call the test reported for this compound. Item: CC[C@@]1(O)C(=O)OCc2c1cc1n(c2=O)Cc2c-1nc1ccccc1c2CC[Si](C)(C)C [COSITECAN]
Return: active
